Test system: U87MG pLVX-IDH2 R140Q-neo cells
Assay: U87MG pLVX-IDH2 R140Q-neo cell based assay, 2-HG in media by LC-MS at 48 hours
Settings: Homo sapiens, U-87 MG
Measurement name: IC50

CC(C)Nc1nc(Nc2ccc(F)cc2F)nc(-c2ccccc2)n1	0.1 to 1 µM
CC(C)Nc1nc(Nc2ccccc2)nc(-c2ccnn2C)n1	1 to 10 µM
CC(C)Nc1nc(Nc2ccccc2)nc(-c2cccnc2)n1	1 to 10 µM
FC(F)(F)CNc1nc(Nc2ccncc2)nc(-c2ccccc2)n1	0.1 to 1 µM
CC(C)Nc1nc(Nc2ccnc(C(F)F)c2)nc(-c2cccc(C(C)(F)F)n2)n1	< 0.1 µM

Please look at the following compound next.
[Q] Which IC50 value belongs to N#CC1(Nc2nc(Nc3ccncc3)nc(-c3ccccc3)n2)CCC1 ?
[A] 0.1 to 1 µM
